# EXPERIMENTAL_SYSTEM: Muscarinic acetylcholine receptor M1 (Homo sapiens, UniProt P11229)
# Sequence (P11229 whole entry): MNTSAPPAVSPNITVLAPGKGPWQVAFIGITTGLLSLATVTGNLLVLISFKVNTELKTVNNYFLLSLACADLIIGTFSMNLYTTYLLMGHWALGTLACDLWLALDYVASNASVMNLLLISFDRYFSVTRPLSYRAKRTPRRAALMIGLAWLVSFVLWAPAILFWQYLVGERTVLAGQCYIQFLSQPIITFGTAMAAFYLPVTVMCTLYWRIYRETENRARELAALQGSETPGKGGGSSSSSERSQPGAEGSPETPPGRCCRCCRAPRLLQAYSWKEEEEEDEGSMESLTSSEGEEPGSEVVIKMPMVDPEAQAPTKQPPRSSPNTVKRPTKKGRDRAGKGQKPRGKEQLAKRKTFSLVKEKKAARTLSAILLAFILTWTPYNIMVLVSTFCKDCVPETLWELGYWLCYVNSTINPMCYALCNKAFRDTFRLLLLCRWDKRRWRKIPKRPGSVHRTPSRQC
# Type: functional, cell-based, CHO
# Description: Inhibitory activity against human Muscarinic acetylcholine receptor M1 using [3H]quinuclidinyl benzilate to label antagonist site (RQNB) in CHO cells
Parameter: pIC50. Scope: all listed entries.
pIC50 here: minus log base 10 of the concentration, concentration in moles per litre.

Example compounds with recorded pIC50:
In [3]: df
Out[3]:
                                   compound  endpoint_result
0  CC#CCC#CCO/N=C1\CN2CCC1C2 (stereo not drawn)             5.25
1  C(#Cc1ccccc1)CO/N=C1\CN2CCC1C2 (stereo not drawn)             5.27

Bench note: what pIC50 did C1CC(O/N=C2\CN3CCC2C3)C1 (stereo not drawn) show?
5.95

Another compound: C#C/C=C/CO/N=C1\CN2CCC1C2 (stereo not drawn)
4.90

----------
# EXPERIMENTAL_SYSTEM: Muscarinic receptor M1 and M2 (Rattus norvegicus, UniProt P08482+P10980)
# Sequence (P08482 whole entry): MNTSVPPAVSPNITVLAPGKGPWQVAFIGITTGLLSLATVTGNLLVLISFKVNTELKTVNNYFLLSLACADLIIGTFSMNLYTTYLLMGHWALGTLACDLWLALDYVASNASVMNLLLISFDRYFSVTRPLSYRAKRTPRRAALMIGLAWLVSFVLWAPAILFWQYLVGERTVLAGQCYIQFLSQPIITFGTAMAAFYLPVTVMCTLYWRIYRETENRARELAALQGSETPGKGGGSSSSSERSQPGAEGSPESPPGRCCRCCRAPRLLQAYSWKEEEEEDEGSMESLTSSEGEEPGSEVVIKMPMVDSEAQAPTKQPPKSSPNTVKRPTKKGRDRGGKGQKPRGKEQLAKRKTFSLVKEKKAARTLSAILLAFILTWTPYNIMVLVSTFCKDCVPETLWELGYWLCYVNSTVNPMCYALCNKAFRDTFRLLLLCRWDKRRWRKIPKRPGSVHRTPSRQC
# Sequence (P10980 whole entry): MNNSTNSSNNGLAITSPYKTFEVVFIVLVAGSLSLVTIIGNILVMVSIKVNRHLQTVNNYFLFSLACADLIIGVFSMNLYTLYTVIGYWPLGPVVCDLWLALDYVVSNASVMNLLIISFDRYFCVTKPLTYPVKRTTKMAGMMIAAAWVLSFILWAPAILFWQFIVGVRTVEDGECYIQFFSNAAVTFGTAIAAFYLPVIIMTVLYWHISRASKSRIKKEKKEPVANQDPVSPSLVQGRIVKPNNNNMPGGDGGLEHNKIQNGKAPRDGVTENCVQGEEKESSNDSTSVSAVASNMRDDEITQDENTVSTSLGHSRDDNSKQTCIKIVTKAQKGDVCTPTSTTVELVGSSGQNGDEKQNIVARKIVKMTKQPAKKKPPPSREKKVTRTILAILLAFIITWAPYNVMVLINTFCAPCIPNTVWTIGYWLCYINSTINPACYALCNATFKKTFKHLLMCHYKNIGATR
# TEST_PROTOCOL: Compound was evaluated for its inhibition of [3H]quinuclidinyl benzilate binding to label antagonist site (RQNB) in rat neocortex
Binarize IC50 at 5 µM; below is 1.0, at or above is 0.0.

Please review the following examples before continuing.
                                   compound  assigned_category
0  C=CCC#CCO/N=C1\CN2CCC1C2 (centres undefined)                0.0
1  CC(C)O/N=C1\CN2CCC1C2 (centres undefined)                1.0
2   CCCO/N=C1\CN2CCC1C2 (centres undefined)                1.0
3  C#CCC#CCO/N=C1\CN2CCC1C2 (centres undefined)                0.0
4  C#CCCCO/N=C1\CN2CCC1C2 (centres undefined)                1.0
5  CC#CCO/N=C1\CN2CCC1C2 (centres undefined)                1.0
6  CCCC#CCO/N=C1\CN2CCC1C2 (centres undefined)                0.0

API: the following record is the query input.
Strictly below 5 µM: is that where IC50 of C1CC(O/N=C2\CN3CCC2C3)C1 (centres undefined) sits?
1.0

----------
Measurement record for Muscarinic acetylcholine receptor M3 (Homo sapiens, UniProt P20309); quantity recorded: pEC50.
Scale explanation: pEC50 corresponds to minus log10 of a concentration expressed in moles per litre.

>>> df
                                   compound  endpoint_result
0  CC#CCO/N=C1\CN2CCC1C2 (configuration not stated)             5.06

Entry CO/N=C1\CN2CCC1C2 (configuration not stated) : reported pEC50 = ?
4.84

Similarly, C#CCO/N=C1\CN2CCC1C2 (configuration not stated) ?
5.08

# iterate: CCC#CCO/N=C1\CN2CCC1C2 (configuration not stated)
5.02

----------
# EXPERIMENTAL_SYSTEM: Muscarinic acetylcholine receptor M2 (Homo sapiens, UniProt P08172)
# TEST_PROTOCOL: Compound was evaluated for inhibitory activity for Muscarinic acetylcholine receptor M2 using [3H]quinuclidinyl benzilate to label antagonist site (RQNB) in CHO cells
# Format: cell-based
QUANTITY_NAME: IC50 (µM)
Your answer should be a plain number; it is taken to be in µM.

Entry under review: CCCC#CCO/N=C1\CN2CCC1C2 (stereo unspecified) . Reported IC50?
20.6

----------
# EXPERIMENTAL_SYSTEM: Muscarinic acetylcholine receptor
# TEST_PROTOCOL: Compound was evaluated for inhibition of [3H]cis-methyldioxolane binding to label agonist sites (RCMD) in rat neocortex
QUANTITY_NAME: IC50 (nM)
Hi! Could you send only the number? It should be in nM, unit omitted.

Some entries whose results are on file:
>>> df
                                   compound  quantity_name  endpoint_result
0    CCCO/N=C1\CN2CCC1C2 (stereo not drawn)           IC50              120
1  CCCC#CCO/N=C1\CN2CCC1C2 (stereo not drawn)           IC50               48
2  CC(C)(C)O/N=C1\CN2CCC1C2 (stereo not drawn)           IC50               91
3  CCCCC#CCO/N=C1\CN2CCC1C2 (stereo not drawn)           IC50               44
4  C#CCCO/N=C1\CN2CCC1C2 (stereo not drawn)           IC50               83

Record request: IC50 value, item C=CCC#CCO/N=C1\CN2CCC1C2 (stereo not drawn)
32

And then C[N+](C)(C)CC#CCOC(=O)Nc1cccc(Cl)c1.[Cl-] , what is it?
25

Please give the result for CC#CCC#CCO/N=C1\CN2CCC1C2 (stereo not drawn) too.
39

Also C#CCCCO/N=C1\CN2CCC1C2 (stereo not drawn) ?
111

Quick one: CCC#CCO/N=C1\CN2CCC1C2 (stereo not drawn)
3.6

How about this compound: C#CC(C)O/N=C1\CN2CCC1C2 (stereo not drawn)
35

Next record, please: Nc1noc(C2CN3CCC2C3)n1 (stereo not drawn)
0.3

Would you mind doing CC#CCO/N=C1\CN2CCC1C2 (stereo not drawn) as well?
4

Next compound: C1CC(O/N=C2\CN3CCC2C3)C1 (stereo not drawn)
88

Entry COCC#CCO/N=C1\CN2CCC1C2 (stereo not drawn) please
55

Now give it for CCO/N=C1\CN2CCC1C2 (stereo not drawn) too.
12.5

Same for CC(C)O/N=C1\CN2CCC1C2 (stereo not drawn)
46

----------
# EXPERIMENTAL_SYSTEM: Muscarinic acetylcholine receptor M2 (Homo sapiens, UniProt P08172)
# Sequence (P08172 whole entry): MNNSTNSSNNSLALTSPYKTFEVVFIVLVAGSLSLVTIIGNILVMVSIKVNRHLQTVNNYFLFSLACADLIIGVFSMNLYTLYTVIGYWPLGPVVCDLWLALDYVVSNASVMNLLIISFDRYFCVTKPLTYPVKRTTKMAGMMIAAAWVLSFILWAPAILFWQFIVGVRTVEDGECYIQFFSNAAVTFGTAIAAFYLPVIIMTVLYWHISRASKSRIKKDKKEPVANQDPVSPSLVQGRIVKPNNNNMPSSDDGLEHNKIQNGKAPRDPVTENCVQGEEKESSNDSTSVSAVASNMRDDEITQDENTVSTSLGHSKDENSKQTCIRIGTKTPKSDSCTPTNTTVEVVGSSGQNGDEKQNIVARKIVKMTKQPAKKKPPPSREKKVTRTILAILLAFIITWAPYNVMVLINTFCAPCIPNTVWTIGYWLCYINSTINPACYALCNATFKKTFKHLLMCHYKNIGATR
# TEST_PROTOCOL: Inhibitory activity against human Muscarinic acetylcholine receptor M2 using [3H]quinuclidinyl benzilate to label antagonist site (RQNB) in CHO cells
# Type: cell-based
Measured pIC50, listed per entry.
As a rule, pIC50 stands for the negative log10 of the concentration, concentration in M.

>>> print(df.to_string())
                                   compound                       experimental_system  endpoint_result
0  CO/N=C1\CN2CCC1C2 (configuration not stated)  Muscarinic acetylcholine receptor M2 (Homo sapiens, UniProt P08172)             5.10
1  C1CC(O/N=C2\CN3CCC2C3)C1 (configuration not stated)  Muscarinic acetylcholine receptor M2 (Homo sapiens, UniProt P08172)             5.79
2  C=CCC#CCO/N=C1\CN2CCC1C2 (configuration not stated)  Muscarinic acetylcholine receptor M2 (Homo sapiens, UniProt P08172)             4.80
3  C#C/C=C/CO/N=C1\CN2CCC1C2 (configuration not stated)  Muscarinic acetylcholine receptor M2 (Homo sapiens, UniProt P08172)             4.52
4  C[N+](C)(C)CC#CCOC(=O)Nc1cccc(Cl)c1.[Cl-]  Muscarinic acetylcholine receptor M2 (Homo sapiens, UniProt P08172)             4.89

pIC50 lookup needed for CCCCC#CCO/N=C1\CN2CCC1C2 (configuration not stated) , thanks.
5.02

Input CC#CCO/N=C1\CN2CCC1C2 (configuration not stated)
5.77
